Catalogue of binders with associated kon
- TESTED TARGET: recombinant human CD3ε/δ heterodimer (human) (UniProt P07766)
- Sequence (P07766 23-126, stated change not applied, chain 1 of 2): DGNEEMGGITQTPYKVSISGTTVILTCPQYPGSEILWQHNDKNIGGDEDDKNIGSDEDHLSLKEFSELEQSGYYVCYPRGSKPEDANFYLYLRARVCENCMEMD
- Sequence (P04234 22-105, stated change not applied, chain 2 of 2, further chain): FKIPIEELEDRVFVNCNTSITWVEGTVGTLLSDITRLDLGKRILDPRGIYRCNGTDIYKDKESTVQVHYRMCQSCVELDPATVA
- TEST PROTOCOL: BLI (Octet), antigen on anti-Penta His sensor, antibody 50 nM
# output: bare number, implied unit M⁻¹ s⁻¹

kon for A08 (antibody, human IgG1, lambda, L234A L235A, V domains shown) VH: EVQLVESGGGLVQPGGSLKLSCAASGFTFNTYAMNWVRQASGKGLEWVGRIRSKYNNYATYYADSVKDRFTISRDDSKNTAYLQMNSLKTEDTAVYYCVRHGNFGNSYVSWFAYWGQGTLVTVSS VL: QAVVTQEPSLTVSPGGTVTLTCRSSTGAVTTSNYANWFQQKPGQAPRGLIGGTNKRAPWTPARFSGSLLGDKAALTLSGAQPEDEAEYYCALWYSNLWVFGGGTKLTVLG ? 102000

Sample C07 (antibody, human IgG1, lambda, L234A L235A, V domains shown) VH: EVQLVESGGGLVQPGGSLKLSCAASGFTFNTYAMNWVRQASGKGLEWVGRIRSKYNNYATYYADSVKDRFTISRDDSQSTAYLQMNSLKTEDTAVYYCVRHGNFGNSYVSWFAYWGQGTLVTVSS VL: QAVVTQEPSLTVSPGGTVTLTCRSSTGAVTTSNYANWFQQKPGQAPRGLIGGTNKRAPWTPARFSGSLLGGKAALTLSGAQPEDEAEYYCALWYSNLWVFGGGTKLTVLG — what was its kon? 152000

Entry H15 (antibody, human IgG1, lambda, L234A L235A, V domains shown) VH: EVQLVESGGGLVQPGGSLKLSCAASGFTFNTYAMNWVRQASGKGLEWVARIRSKYNNYATYYADSVKDRFTISRDDSQSTLYLQMNSLKTEDTAVYYCVRHGNFGNSYVSWFAYWGQGTLVTVSS VL: QAVVTQEPSLTVSPGGTVTLTCRSSTGAVTTSNYANWVQQKPGQAPRGLIGGTNKRAPWTPARFSGSLLGGKAALTLSGAQPEDEAEYYCALWYSNLWVFGGGTKLTVLG has what kon? 199000

Taken from patent US20200317779A1.
